Source: patent US6803378B2

Target: HIV Integrase (Human immunodeficiency virus type 1 group M subtype B)
Construct: 0.26 ng of recombinant integrase was then incubated with the beads
Test: In vitro activity against integrase, Method B (SPA assay)
Assay type: biochemical
Details: read-out: Percent inhibition of HIV Integrase at 70 uM
Description: The in vitro activities, against integrase, of compounds of the present invention were measured by one of the following three methods. In Method B, the in vitro activity against integrase was measured by binding, for each reaction, 5 pmole of biotin labeled substrate DNA to 100 ug of Streptavidin coated PVT SPA beads (Amersham Pharmacia Biotech). […] Samples were counted in TopCountNXT (Packard) and the CPM was used as a measure of integration. […]
RESULT TYPE: inhibition at 70 µM (%)
One number for each entry, in %.

Give inhibition at 70 µM for each listed item.
1. O=C(O)/C(O)=C/C(=O)N(Cc1ccc(F)cc1)Cc1ccc2ccccc2c1
2. O=C(O)/C(O)=C/C(=O)N(Cc1ccccc1)Cc1ccccc1
3. O=C(O)/C(O)=C/C(=O)N(Cc1ccc(F)cc1)Cc1ccco1
4. O=C(CCCCCNC(=O)/C(O)=C/C(=O)N(Cc1ccc(F)cc1)Cc1ccc(F)cc1)NS(=O)(=O)c1ccccc1
5. Cc1ccc(CNC(=O)/C=C(\O)C(=O)O)cc1F
6. CN(Cc1cccc(Cl)c1)C(=O)/C=C(\O)C(=O)O
7. Cc1ccc(CN(C(=O)/C=C(\O)C(=O)O)c2ccc(Cl)cc2)cc1

Ans:
1: 99; 2: 94.5; 3: 98; 4: 98; 5: 99; 6: 99; 7: 99

Give one value of inhibition at 70 µM per listed compound.
1. CN(Cc1ccc(F)c(Cl)c1)C(=O)/C=C(\O)C(=O)O
2. CN(Cc1ccccc1Cc1ccc(F)cc1)C(=O)/C=C(\O)C(=O)O

Ans:
1. 99
2. 95

----------
Target: HIV Integrase (Human immunodeficiency virus type 1 group M subtype B, UniProt P04585)
Construct: 0.26 ng of recombinant integrase was then incubated with the beads
Test: In vitro activity against integrase, Method C (electroluminescence, ECL assay)
Format: biochemical
Settings: read-out: Percent inhibition of HIV Integrase at 70 uM
Please go through the items and note down their inhibition at 70 µM.
Give bare numbers, in %.

I would be grateful if you could provide inhibition at 70 µM for each of the following entries.
1. CC(C)N(CCCc1ccccc1)C(=O)/C=C(\O)C(=O)O
2. O=C(O)/C(O)=C/C(=O)N(CCCc1ccccc1F)Cc1ccc(F)cc1
3. O=C(CCCCCNC(=O)/C(O)=C/C(=O)N(CCCc1ccccc1Cl)Cc1ccc(F)cc1)NS(=O)(=O)c1ccccc1
4. CC(c1ccc(F)cc1)N(C)C(=O)/C=C(\O)C(=O)O (stereo not drawn)
5. O=C(O)/C(O)=C/C(=O)N(CCOc1ccc(F)cc1)Cc1ccc(F)cc1

Ans:
[95.5, 100, 98, 99, 99]

// batch mode: one inhibition at 70 µM value per listed entry
1. O=C(O)/C(O)=C/C(=O)N(CCc1ccncc1)Cc1ccc(F)cc1
2. CN(Cc1ccc(F)c(Br)c1)C(=O)C=C(O)C(=O)O
3. CN(C(=O)/C=C(\O)C(=O)O)C(Cc1ccc(F)cc1)c1ccc(F)cc1 (stereo not drawn)
4. O=C(O)/C(O)=C/C(=O)N(Cc1ccc(F)cc1)CC1CC1c1ccccc1 (stereo not drawn)

Ans:
97
99
75
99
